Sourced from patent US20240376198A1

testTarget: T1, human NKp46 (human, UniProt O76036 22-304)
T1 construct: also called CD335; NCR1
T1 sequence (O76036 22-304 Q82K): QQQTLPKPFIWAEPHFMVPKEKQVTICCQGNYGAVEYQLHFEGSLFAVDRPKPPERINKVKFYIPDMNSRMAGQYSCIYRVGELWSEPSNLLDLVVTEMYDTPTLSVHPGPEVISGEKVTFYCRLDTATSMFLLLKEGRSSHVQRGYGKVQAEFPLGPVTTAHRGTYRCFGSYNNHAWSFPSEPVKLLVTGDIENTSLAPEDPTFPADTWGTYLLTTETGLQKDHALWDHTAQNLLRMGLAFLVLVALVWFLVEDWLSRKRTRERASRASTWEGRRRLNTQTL
protocol: flow cytometry, HEK293F cells transfected with human NKp46
property: Kd (nM)
Answer with a number only, understood to be in nM.

>  <binder>
NKp46-hz5D7v1-Fc* (Fc fusion, VHH-Fc fusion with an IgG1 Fc lacking a hinge (Fc*)) EVQLVESGGGEVQPGGSLRLSCAASGRTFASAAMGWFRQAPGKGREFVAAISRSDDTYYAESVKGRFTISRDNAKNTLYLQMSSLRAEDTAVYYCAAVVPTYGNNIYVHSAAYNYWGQGTLVTVKPGGGGPSVFLFPPKPKDTLMISRTPEVTCVVVDVSHEDPEVKFNWYVDGVEVHNAKTKPREEQYNSTYRVVSVLTVLHQDWLNGKEYKCKVSNKALPAPIEKTISKAKGQPREPQVYTLPPSRDELTKNQVSLTCLVKGFYPSDIAVEWESNGQPENNYKTTPPVLDSDGSFFLYSKLTVDKSRWQQGNVFSCSVMHEALHNHYTQKSLSLSPG

>  <property>
Kd

>  <observed>
0.139

$$$$

Sample NKp46-hz5D7v17-Fc (Fc fusion) EVQLVESGGGEVQPGGSLRLSCAASGRTFASAAMGWFRQAPGKEREFVAAISRSDDTYYAESVKGRFTISRDNAKNTVYLQMSSLRAEDTAVYYCAAVVPTYGSNIYVHSAAYNYWGQGTLVTVRPDKTHTCPPCPAPGGPSVFLFPPKPKDTLMISRTPEVTCVVVDVSHEDPEVKFNWYVDGVEVHNAKTKPREEQYNSTYRVVSVLTVLHQDWLNGKEYKCKVSNKALPAPIEKTISKAKGQPREPQVYTLPPSRDELTKNQVSLTCLVKGFYPSDIAVEWESNGQPENNYKTTPPVLDSDGSFFLYSKLTVDKSRWQQGNVFSCSVMHEALHNHYTQKSLSLSPG — what was its Kd? 0.295
